# System: Saccharomyces cerevisiae;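 also: PSI is a weighted mean of sequencing reads over stability bins, variants kept only with over 10 reads, mCherry proximal and sfGFP distal, peptide attached via GGGS linker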
# assay_summary: protein stability index of tFT-peptide fusion (C-terminal peptide) (PSI (0-1 scale)); higher = more stable (slower turnover)
# condition_info: genetic background: wild type; temperature: 30 C
Hi, to clarify the labels: yes covers protein stability index from 0.7 upward, no covers anything below 0.7.

Use the examples below as a reference point.
[
  {
    "sequence_entry": "VYVSRTRPFSLY",
    "class_name": "no"
  },
  {
    "sequence_entry": "RLGIRCLYLRFI",
    "class_name": "no"
  },
  {
    "sequence_entry": "ARKDVTRKSSND",
    "class_name": "no"
  },
  {
    "sequence_entry": "GRRDVTFGTAFF",
    "class_name": "yes"
  },
  {
    "sequence_entry": "DWWLPLFDWAKL",
    "class_name": "yes"
  },
  {
    "sequence_entry": "RKQHKLRKTKRA",
    "class_name": "no"
  }
]

--- query ---
Reported protein stability index at or above 0.7? LWGGPLLLPVCL no
